tested_system: Protoporphyrinogen oxidase (Homo sapiens)
Sequence (P50336 whole entry): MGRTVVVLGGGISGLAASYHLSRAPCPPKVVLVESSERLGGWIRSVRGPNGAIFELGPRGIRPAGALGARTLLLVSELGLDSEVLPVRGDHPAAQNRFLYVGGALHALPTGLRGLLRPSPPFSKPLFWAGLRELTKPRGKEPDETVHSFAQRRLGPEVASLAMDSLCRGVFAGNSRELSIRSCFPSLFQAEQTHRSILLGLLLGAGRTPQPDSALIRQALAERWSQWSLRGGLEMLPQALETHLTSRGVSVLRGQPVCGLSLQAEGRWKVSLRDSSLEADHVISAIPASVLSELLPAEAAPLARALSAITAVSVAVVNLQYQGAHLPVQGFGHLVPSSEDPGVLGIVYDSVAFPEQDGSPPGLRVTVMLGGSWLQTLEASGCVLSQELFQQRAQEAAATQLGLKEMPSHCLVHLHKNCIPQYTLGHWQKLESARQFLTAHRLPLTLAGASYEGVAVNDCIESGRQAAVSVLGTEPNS
procedure_text: Inhibition of Homo sapiens (human) protoporphyrinogen oxidase
condition: read-out: Ki
pKi: −log10 of the molar value.
Lab note: anything with pKi at or over 4 counts as Met; the rest go in Not met.

COc1cc(N2C(=O)C3CCCCC3C2O)c(F)cc1Cl (configuration not stated); Not met
CCCOc1cc(N2CC3=C(CCCC3)C2=O)c(Cl)cc1Cl; Met
CCOc1cc(Cl)c([N+](=O)[O-])cc1N1C(=O)C2=C(CCCC2)C1O (configuration not stated); Not met
CC(C)Oc1cc(N2C(=O)C3CCCCC3C2O)c(F)cc1Cl (configuration not stated); Met
C=CCOc1cc(N2C(=O)C3=C(CCCC3)C2O)c(Cl)cc1Cl (configuration not stated); Met

Next compound, please.
Determine whether this compound has pKi no lower than 4: C=CCOC1C2=C(CCCC2)C(=O)N1c1cc(OCc2cccc(Cl)c2)c(Cl)cc1F (configuration not stated)
Met
